target: Chymase (Homo sapiens, UniProt P23946); assay: Inhibitory activity against human serine protease chymase
Sequence (P23946 whole entry): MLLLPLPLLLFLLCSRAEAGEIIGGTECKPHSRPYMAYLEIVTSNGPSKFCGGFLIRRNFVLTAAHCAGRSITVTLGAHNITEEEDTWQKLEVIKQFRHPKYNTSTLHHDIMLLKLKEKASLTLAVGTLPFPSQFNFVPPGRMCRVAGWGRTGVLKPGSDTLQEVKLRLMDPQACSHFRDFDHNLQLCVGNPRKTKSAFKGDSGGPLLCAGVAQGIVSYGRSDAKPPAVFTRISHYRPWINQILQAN
Task for the reader: assign each of the following compounds its reported pIC50.
Give bare numbers, as −log10 of the molar value.

A selection of reference data follows.
- COMPOUND: "O=C(CCc1ccccc1Cl)N[C@@H](Cc1ccccc1)C(=O)CCl"
  pIC50: 6.22
- COMPOUND: "O=C(N[C@@H](Cc1ccccc1)C(=O)CCl)c1ccccc1"
  pIC50: 5.89
- COMPOUND: "O=C(CCc1ccc(Cl)cc1)N[C@@H](Cc1ccccc1)C(=O)CCl"
  pIC50: 5.72

Please state, for each entry, its recorded pIC50.
1. O=C(CCCc1ccccc1)N[C@@H](Cc1ccccc1)C(=O)CCl
2. Cc1ccc(CCC(=O)N[C@@H](Cc2ccccc2)C(=O)CCl)cc1

Result:
[5.60, 6.52]

Please state, for each entry, its recorded pIC50.
1. O=C(CCc1cccc(Cl)c1Cl)N[C@@H](Cc1ccccc1)C(=O)CCl
2. O=C(CCc1ccc(F)cc1)N[C@@H](Cc1ccccc1)C(=O)CCl
3. Cc1ccc(S(=O)(=O)N[C@@H](Cc2ccccc2)C(=O)CCl)cc1 [TPCK]

Result:
[6.40, 5.62, 5.48]

Please state, for each entry, its recorded pIC50.
1. O=C(Cc1ccccc1)N[C@@H](Cc1ccccc1)C(=O)CCl
2. O=C(N[C@@H](Cc1ccccc1)C(=O)CCl)OCc1ccccc1

Result:
1: 5.33; 2: 6.40

Please state, for each entry, its recorded pIC50.
1. O=C(CCc1ccc(O)cc1)N[C@@H](Cc1ccccc1)C(=O)CCl
2. O=C(CCc1ccccc1F)N[C@@H](Cc1ccccc1)C(=O)CCl
3. O=C(CCCCc1ccccc1)N[C@@H](Cc1ccccc1)C(=O)CCl

Result:
1: 5.57; 2: 6.44; 3: 5.92

====

Target protein (sequence): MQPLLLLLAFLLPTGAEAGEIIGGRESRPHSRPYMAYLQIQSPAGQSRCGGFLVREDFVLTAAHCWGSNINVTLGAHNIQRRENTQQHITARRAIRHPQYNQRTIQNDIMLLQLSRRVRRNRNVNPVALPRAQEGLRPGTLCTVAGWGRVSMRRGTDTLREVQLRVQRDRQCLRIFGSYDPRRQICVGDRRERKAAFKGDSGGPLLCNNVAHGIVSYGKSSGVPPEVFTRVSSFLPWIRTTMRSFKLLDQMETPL
QUANTITY_KIND: pIC50
Numbers only, as −log10 of the molar value.

Ask: Find the recorded pIC50 belonging to Cc1ccc(S(=O)(=O)N[C@@H](Cc2ccccc2)C(=O)CCl)cc1 [TPCK] and report it.
Result: 3.96

====

Task for the reader: assign each of the following compounds its reported IC50.
molecular target: UniProt:P00766
Give bare numbers, in µM.

- COMPOUND: "O=C(CCCCc1ccccc1)N[C@@H](Cc1ccccc1)C(=O)CCl"
  IC50, µM: 18
- COMPOUND: "O=C(CCc1ccc(O)cc1)N[C@@H](Cc1ccccc1)C(=O)CCl"
  IC50, µM: 14
- COMPOUND: "O=C(N[C@@H](Cc1ccccc1)C(=O)CCl)c1ccccc1"
  IC50, µM: 9.3
- COMPOUND: "O=C(CCCc1ccccc1)N[C@@H](Cc1ccccc1)C(=O)CCl"
  IC50, µM: 26
- COMPOUND: "Cc1ccc(S(=O)(=O)N[C@@H](Cc2ccccc2)C(=O)CCl)cc1 [TPCK]"
  IC50, µM: 140
- COMPOUND: "COc1cccc(CCC(=O)N[C@@H](Cc2ccccc2)C(=O)CCl)c1"
  IC50, µM: 85

Please state, for each entry, its recorded IC50.
1. CC(C)c1ccc(CCC(=O)N[C@@H](Cc2ccccc2)C(=O)CCl)cc1
2. O=C(CCc1cccc(C(F)(F)F)c1)N[C@@H](Cc1ccccc1)C(=O)CCl
3. O=C(CCc1cccc(Cl)c1Cl)N[C@@H](Cc1ccccc1)C(=O)CCl
4. O=C(CCc1ccccc1Cl)N[C@@H](Cc1ccccc1)C(=O)CCl

Result:
[39, 20, 10, 97]

====

target: Trypsin (Sus scrofa, UniProt P00761)
Sequence (P00761 whole entry): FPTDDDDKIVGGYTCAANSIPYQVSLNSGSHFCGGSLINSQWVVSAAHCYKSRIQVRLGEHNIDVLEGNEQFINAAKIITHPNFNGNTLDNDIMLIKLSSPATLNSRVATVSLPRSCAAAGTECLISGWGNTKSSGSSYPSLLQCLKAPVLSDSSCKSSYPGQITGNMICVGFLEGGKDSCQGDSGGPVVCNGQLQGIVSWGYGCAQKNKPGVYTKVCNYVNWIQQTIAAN
QUANTITY_KIND: pIC50
Answers are plain numbers, as −log10 of the molar value.

A selection of reference data follows.
- COMPOUND: "Cc1ccc(S(=O)(=O)N[C@@H](Cc2ccccc2)C(=O)CCl)cc1 [TPCK]"
  pIC50: 3.70
- COMPOUND: "O=C(/C=C/c1ccccc1)N[C@@H](Cc1ccccc1)C(=O)CCl"
  pIC50: 3.68

Please state, for each entry, its recorded pIC50.
1. O=C(N[C@@H](Cc1ccccc1)C(=O)CCl)c1ccccc1
2. O=C(CCCc1ccccc1)N[C@@H](Cc1ccccc1)C(=O)CCl

Result:
1. 3.62
2. 3.16

Please state, for each entry, its recorded pIC50.
1. Cc1ccc(CCC(=O)N[C@@H](Cc2ccccc2)C(=O)CCl)cc1
2. CC(C)c1ccc(CCC(=O)N[C@@H](Cc2ccccc2)C(=O)CCl)cc1

Result:
1: 3.59; 2: 5.40

====

target: UniProt:P00766
Please use True for IC50 under 30 µM and False for everything else, ties included.

- ITEM_SMILES: "COc1ccccc1CCC(=O)N[C@@H](Cc1ccccc1)C(=O)CCl"
  SYSTEM_NAME: "UniProt:P00766"
  CLASS_LABEL: "True"
- ITEM_SMILES: "O=C(CCc1ccc(Cl)c(Cl)c1)N[C@@H](Cc1ccccc1)C(=O)CCl"
  SYSTEM_NAME: "UniProt:P00766"
  CLASS_LABEL: "True"
- ITEM_SMILES: "O=C(CCc1ccccc1F)N[C@@H](Cc1ccccc1)C(=O)CCl"
  SYSTEM_NAME: "UniProt:P00766"
  CLASS_LABEL: "False"
- ITEM_SMILES: "Cc1cccc(CCC(=O)N[C@@H](Cc2ccccc2)C(=O)CCl)c1"
  SYSTEM_NAME: "UniProt:P00766"
  CLASS_LABEL: "True"
- ITEM_SMILES: "O=C(CCc1cccc(F)c1)N[C@@H](Cc1ccccc1)C(=O)CCl"
  SYSTEM_NAME: "UniProt:P00766"
  CLASS_LABEL: "False"

For the next question, use this molecule.
Ask: Please determine if O=C(CCc1ccc(C(F)(F)F)cc1)N[C@@H](Cc1ccccc1)C(=O)CCl is below 30 µM in terms of IC50.
Result: True
